# IC50 annotations
- measured.on: NRAS G12C (Homo sapiens, UniProt P01111+P62937, G12C)
- Sequence (P01111 whole entry G12C): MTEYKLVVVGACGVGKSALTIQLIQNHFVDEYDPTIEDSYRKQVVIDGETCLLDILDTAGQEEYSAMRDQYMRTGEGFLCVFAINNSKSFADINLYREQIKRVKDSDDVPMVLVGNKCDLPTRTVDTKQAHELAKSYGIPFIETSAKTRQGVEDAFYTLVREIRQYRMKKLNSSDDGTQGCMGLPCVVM
- Sequence (P62937 whole entry): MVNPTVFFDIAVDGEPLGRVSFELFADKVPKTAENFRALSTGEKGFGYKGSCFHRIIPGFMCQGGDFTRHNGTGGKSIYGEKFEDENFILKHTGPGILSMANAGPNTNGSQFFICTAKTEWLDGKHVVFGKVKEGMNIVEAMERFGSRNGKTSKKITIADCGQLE
- assay.notes: Disruption of BRAF RBD interaction with Ras (FRET / MOA assay, with Cyclophilin A)
- Assay type: biochemical
- reported.conditions: NRAS G12C; read-out: NRAS G12C FRET data IC50
measured.metric: IC50

compound	assay.result
CCn1c(-c2cccnc2[C@H](C)OC)c2c3cc(ccc31)-c1csc(n1)C[C@H](NC(=O)[C@H](C(C)C)N(C)C(=O)N(C)C1CCC1)C(=O)N1CCC[C@H](N1)C(=O)OCC(C)(C)C2 (atropisomer, axis not shown)	10 to 100 nM
CCn1c(-c2cccnc2[C@H](C)OC)c2c3cc(ccc31)-c1csc(n1)C[C@H](NC(=O)[C@H](C(C)C)N(C)C(=O)N1CC([C@@H](C)CO)C1)C(=O)N1CCC[C@H](N1)C(=O)OCC(C)(C)C2 (single isomer, unassigned)	10 to 100 nM
C=CC(=O)N1CC2(CCN2C(=O)N(C)[C@H](C(=O)N[C@H]2Cc3nc(n(C)n3)-c3ccc4c(c3)c(c(-c3cccnc3[C@H](C)OC)n4CC)CC(C)(C)COC(=O)C3CCCN(N3)C2=O)C(C)C)C1 (some centres unmarked)	< 10 nM
CCn1c(-c2cccnc2[C@H](C)OC)c2c3cc(ccc31)-c1csc(n1)C[C@H](NC(=O)[C@H](C(C)C)N(C)C(=O)N1CCC3(CC1)CN(C)CCO3)C(=O)N1CCC[C@H](N1)C(=O)OCC(C)(C)C2	100 to 1000 nM
C=CC(=O)Nc1cnc(OC[C@H](C(=O)N[C@H]2Cc3cccc(c3)-c3ccc4c(c3)c(c(-c3cccnc3[C@H](C)OC)n4CC)CC(C)(C)COC(=O)C3CCCN(N3)C2=O)C(C)C)n1C (some centres unmarked)	< 10 nM
CCn1c(-c2cccnc2[C@H](C)OC)c2c3cc(ccc31)-c1csc(n1)C[C@H](NC(=O)[C@H](C(C)C)N(C)C(=O)N1CCN(C(=O)CCN(C)C)CC1)C(=O)N1CCC[C@H](N1)C(=O)OCC(C)(C)C2	10 to 100 nM
CCn1c(-c2cccnc2[C@H](C)OC)c2c3cc(ccc31)-c1cc(O)cc(c1)C[C@H](NC(=O)[C@H](C(C)C)N(C)C(=O)[C@H]1C[C@@H]1O)C(=O)N1CCC[C@H](N1)C(=O)OCC(C)(C)C2 (single isomer, unassigned)	10 to 100 nM
CCn1c(-c2cccnc2[C@H](C)OC)c2c3cc(ccc31)-c1csc(n1)C[C@H](NC(=O)[C@H](C(C)C)N(C)C(=O)N1CC3(CC3)C1)C(=O)N1CCC[C@H](N1)C(=O)OCC(C)(C)C2 (atropisomer, axis not shown)	10 to 100 nM

###

Listed next: entries and their corresponding pIC50.
- Tested on: AsPC-1 (K-Ras G12D)
- assay.notes: CellTiter-Glo cell viability assay
- Type: cell-based
- reported.conditions: Homo sapiens, ASPC1, 120 h, read-out: AsPC-1 Cell Viability assay data IC50, K-Ras G12D, 5-day treatment
pIC50: −log10 of the molar value.

compound.string	pIC50
CCn1c(-c2cccnc2[C@H](C)OC)c2c3cc(ccc31)-c1cc(O)cc(c1)C[C@H](NC(=O)[C@H](C(C)C)N(C)C(=O)CN(C)C(=O)[C@]1(C)CN1)C(=O)N1CCC[C@H](N1)C(=O)OCC(C)(C)C2	6.00 to 7.00
CCn1c(-c2cnccc2COC)c2c3cc(ccc31)-c1cc(O)cc(c1)C[C@H](NC(=O)[C@H](C(C)C)N(C)C(=O)CN(C)C(=O)[C@@H]1N[C@H]1c1ccccc1)C(=O)N1CCC[C@H](N1)C(=O)OCC(C)(C)C2	5.00 to 6.00
CCn1c(-c2cccnc2[C@H](C)OC)c2c3cc(ccc31)-c1cc(O)cc(c1)C[C@H](NC(=O)[C@H](C(C)C)N(C)C(=O)CN(C)C(=O)[C@@H]1N[C@H]1C(F)(F)F)C(=O)N1CCC[C@H](N1)C(=O)OCC(C)(C)C2	6.00 to 7.00
CCn1c(-c2cccnc2[C@H](C)OC)c2c3cc(ccc31)-c1cc(O)cc(c1)C[C@H](NC(=O)[C@H](C(C)C)N(C)C(=O)CN(C)C(=O)[C@@]1(C)CN1)C(=O)N1CCC[C@H](N1)C(=O)OCC(C)(C)C2	6.00 to 7.00

###

- measured.on: KRAS G13D (Homo sapiens, UniProt P01116+P62937, G13D)
- Sequence (P01116 1-169 isoform P01116-2 G13D limits assumed): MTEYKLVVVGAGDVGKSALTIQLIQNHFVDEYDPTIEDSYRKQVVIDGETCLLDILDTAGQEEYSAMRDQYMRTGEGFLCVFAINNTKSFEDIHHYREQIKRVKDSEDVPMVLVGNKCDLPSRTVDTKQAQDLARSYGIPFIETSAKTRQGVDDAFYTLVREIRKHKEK
- Sequence (P62937 whole entry): as the sequence (P62937 whole entry) above
- assay.notes: Disruption of BRAF RBD interaction with Ras (FRET / MOA assay, with Cyclophilin A)
- Assay type: biochemical
- reported.conditions: KRAS G13D; read-out: KRAS G13D FRET data IC50
pIC50: −log10 of the molar value.
Listing: pIC50 of selected compounds

compound	measured.on	pIC50
CCn1c(-c2cccnc2[C@H](C)OC)c2c3cc(ccc31)-c1csc(n1)C[C@H](NC(=O)c1ccccn1)C(=O)N1CCC[C@H](N1)C(=O)OCC(C)(C)C2	KRAS G13D (Homo sapiens, UniProt P01116+P62937, G13D)	5.00 to 6.00
C=CC(=O)N1CCO[C@H]2CN(C(=O)N(C)[C@H](C(=O)N[C@H]3Cc4cccc(c4)-c4ccc5c(c4)c(c(-c4cccnc4[C@H](C)OC)n5CC)CC(C)(C)COC(=O)C4CCCN(N4)C3=O)C(C)C)C[C@H]21 (stereo partly drawn)	KRAS G13D (Homo sapiens, UniProt P01116+P62937, G13D)	5.00 to 6.00
CCn1c(-c2cccnc2[C@H](C)OC)c2c3cc(ccc31)-c1csc(n1)C[C@H](NC(=O)[C@@H]1CCCO1)C(=O)N1CCC[C@H](N1)C(=O)OCC(C)(C)C2	KRAS G13D (Homo sapiens, UniProt P01116+P62937, G13D)	5.00 to 6.00
CCn1c(-c2cccnc2[C@H](C)OC)c2c3cc(ccc31)-c1cc(O)cc(c1)C[C@H](NC(=O)[C@H](C(C)C)N(C)C(=O)[C@H]1C[C@H]1C)C(=O)N1CCC[C@H](N1)C(=O)OCC(C)(C)C2	KRAS G13D (Homo sapiens, UniProt P01116+P62937, G13D)	6.00 to 7.00
CCn1c(-c2cccnc2[C@H](C)OC)c2c3cc(ccc31)-c1csc(n1)C[C@H](NC(=O)[C@H](C(C)C)N(C)C(=O)N1CCN(C)CC1)C(=O)N1CCC[C@H](N1)C(=O)OCC(C)(C)C2	KRAS G13D (Homo sapiens, UniProt P01116+P62937, G13D)	6.00 to 7.00
CCn1c(-c2cccnc2[C@H](C)OC)c2c3cc(ccc31)-c1cc(O)cc(c1)C[C@H](NC(=O)[C@H](C(C)C)N(C)C(=O)[C@H]1CCN(C(=O)OC3COC3)C1)C(=O)N1CCC[C@H](N1)C(=O)OCC(C)(C)C2	KRAS G13D (Homo sapiens, UniProt P01116+P62937, G13D)	7.00 to 8.00
CCn1c(-c2cnccc2COC)c2c3cc(ccc31)-c1cc(O)cc(c1)C[C@H](NC(=O)[C@H](C(C)C)N(C)C(=O)c1ncco1)C(=O)N1CCC[C@H](N1)C(=O)OCC(C)(C)C2	KRAS G13D (Homo sapiens, UniProt P01116+P62937, G13D)	6.00 to 7.00
CCn1c(-c2cccnc2[C@H](C)OC)c2c3cc(ccc31)-c1cc(O)cc(c1)C[C@H](NC(=O)[C@H](C(C)C)N(C)C(=O)[C@H]1CCN(C(=O)[C@H]3CCCN3)C1)C(=O)N1CCC[C@H](N1)C(=O)OCC(C)(C)C2	KRAS G13D (Homo sapiens, UniProt P01116+P62937, G13D)	7.00 to 8.00
CCn1c(-c2cnccc2COC)c2c3cc(ccc31)-c1cc(O)cc(c1)C[C@H](NC(=O)[C@H](C(C)C)N1CCCCC1=O)C(=O)N1CCC[C@H](N1)C(=O)OCC(C)(C)C2	KRAS G13D (Homo sapiens, UniProt P01116+P62937, G13D)	5.00 to 6.00

###

- measured.on: KRAS G12C (Homo sapiens, UniProt P01116+P62937, G12C)
- Sequence (P01116 1-169 isoform P01116-2 G12C limits assumed, one chain of several): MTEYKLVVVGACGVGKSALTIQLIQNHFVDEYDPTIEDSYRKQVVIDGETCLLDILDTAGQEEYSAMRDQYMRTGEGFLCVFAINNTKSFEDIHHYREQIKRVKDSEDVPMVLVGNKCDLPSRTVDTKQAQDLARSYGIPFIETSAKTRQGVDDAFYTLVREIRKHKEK
- assay.notes: Ras-Raf disruption / FRET / MOA assay (BRAF RBD)
- Format: biochemical
- reported.conditions: Ras-Raf disruption, with Cyclophilin A; read-out: KRAS G12C FRET data IC50
pIC50: −log10 of the molar value.
Property: pIC50; scope: individual molecules

molecule	pIC50
CCn1c(-c2cccnc2[C@H](C)OC)c2c3cc(ccc31)-c1cc(O)cc(c1)C[C@H](NC(=O)[C@H](C1CCCC1)N1CC[C@@]3(CCN(C(=O)[C@H]4CN4)C3)C1=O)C(=O)N1CCC[C@H](N1)C(=O)OCC(C)(C)C2	> 8.00
CCn1c(-c2cccnc2[C@H](C)OC)c2c3cc(ccc31)-c1cc(O)cc(c1)C[C@H](NC(=O)[C@H](C(C)C)N(C)C(=O)[C@H]1CCN(S(=O)(=O)[C@@H]3CN3C)C1)C(=O)N1CCC[C@H](N1)C(=O)OCC(C)(C)C2 (single isomer, unassigned)	7.00 to 8.00
CCn1c(-c2cccnc2[C@H](C)OC)c2c3cc(ccc31)-c1csc(n1)C[C@H](NC(=O)[C@H](C(C)C)N(C)C(=O)N1CCN(C(=O)[C@@H]3CN3)CC1)C(=O)N1CCC[C@H](N1)C(=O)OCC(C)(C)C2	7.00 to 8.00
CCn1c(-c2cccnc2[C@H](C)OC)c2c3cc(ccc31)-c1cccc(c1)C[C@H](NC(=O)[C@H](C(C)C)N(C)C(=O)[C@H]1C[C@H](N=C=Nc3c(C)cccc3C)C1)C(=O)N1CCC[C@H](N1)C(=O)OCC(C)(C)C2	6.00 to 7.00
CCn1c(-c2cccnc2[C@H](C)OC)c2c3cc(ccc31)-c1cc(O)cc(c1)C[C@H](NC(=O)[C@H](C(C)C)N(C)C(=O)[C@@H]1CN1)C(=O)N1CCC[C@H](N1)C(=O)OCC(C)(C)C2	7.00 to 8.00
CCn1c(-c2cccnc2[C@H](C)OC)c2c3cc(ccc31)-c1csc(n1)C[C@H](NC(=O)[C@H](C(C)C)N(C)C(=O)N1CC(CN(C)C(=O)[C@H]3CN3)C1)C(=O)N1CCC[C@H](N1)C(=O)OCC(C)(C)C2 (atropisomer, axis not shown)	7.00 to 8.00
CCn1c(-c2cccnc2[C@H](C)OC)c2c3cc(ccc31)-c1cc(O)cc(c1)C[C@H](NC(=O)[C@H](C(C)C)N(C)C(=O)c1ccc(NC(=O)[C@H]3CN3)cn1)C(=O)N1CCC[C@H](N1)C(=O)OCC(C)(C)C2	6.00 to 7.00
CCn1c(-c2cccnc2[C@H](C)OC)c2c3cc(ccc31)-c1cc(O)cc(c1)C[C@H](NC(=O)[C@H](C(C)C)N(C)C(=O)C1CCN(C(=O)[C@@H]3CN3)CC1)C(=O)N1CCC[C@H](N1)C(=O)OCC(C)(C)C2	7.00 to 8.00
CCn1c(-c2cccnc2[C@H](C)OC)c2c3cc(ccc31)-c1cc(O)cc(c1)C[C@H](NC(=O)[C@@H](COC1CCN(C(=O)[C@H]3CN3)CC1)C(C)C)C(=O)N1CCC[C@H](N1)C(=O)OCC(C)(C)C2 (atropisomer, axis not shown)	7.00 to 8.00
CCn1c(-c2cccnc2[C@H](C)OC)c2c3cc(ccc31)-c1cc(O)cc(c1)C[C@H](NC(=O)[C@H](C(C)C)N(C)C(=O)[C@]1(F)CCN(C(=O)[C@H]3CN3)C1)C(=O)N1CCC[C@H](N1)C(=O)OCC(C)(C)C2 (atropisomer, axis not shown)	> 8.00
CCn1c(-c2cccnc2[C@H](C)OC)c2c3cc(ccc31)-c1cc(O)cc(c1)C[C@H](NC(=O)[C@H](C(C)C)N(C)C(=O)N1CCN(C(=O)[C@H]3CN3)C(=O)C1)C(=O)N1CCC[C@H](N1)C(=O)OCC(C)(C)C2	7.00 to 8.00
CCn1c(-c2cccnc2[C@H](C)OC)c2c3cc(ccc31)-c1cccc(c1)C[C@H](NC(=O)[C@H](C(C)C)N(C)C(=O)[C@H]1CC[C@H](N=C=NC(C)(C)C)C1)C(=O)N1CCC[C@H](N1)C(=O)OCC(C)(C)C2	7.00 to 8.00
CCn1c(-c2cccnc2[C@H](C)OC)c2c3cc(ccc31)-c1csc(n1)C[C@H](NC(=O)[C@H](C(C)C)N(C)C(=O)N1CC[C@H]1CN(C)C(=O)[C@@H]1CN1)C(=O)N1CCC[C@H](N1)C(=O)OCC(C)(C)C2	6.00 to 7.00
CCn1c(-c2cccnc2[C@H](C)OC)c2c3cc(ccc31)-c1csc(n1)C[C@H](NC(=O)[C@H](C(C)C)N(C)C(=O)N(C)CC1CN(C(=O)[C@@H]3CN3)C1)C(=O)N1CCC[C@H](N1)C(=O)OCC(C)(C)C2 (atropisomer, axis not shown)	7.00 to 8.00
CCn1c(-c2cccnc2[C@H](C)OC)c2c3cc(ccc31)-c1cc(O)cc(c1)C[C@H](NC(=O)[C@H](C(C)C)N(C)C(=O)N(C)C1CN(C(=O)[C@H]3CN3)C1)C(=O)N1CCC[C@H](N1)C(=O)OCC(C)(C)C2 (atropisomer, axis not shown)	> 8.00
CCn1c(-c2cccnc2[C@H](C)OC)c2c3cc(ccc31)-c1csc(n1)C[C@H](NC(=O)[C@H](C(C)C)N(C)C(=O)N1CCN(C(=O)[C@H]3CN3)CC1)C(=O)N1CCC[C@H](N1)C(=O)OCC(C)(C)C2	7.00 to 8.00

The measurements presented in this section are drawn from patent US20230233569A1.
